subject_of_test: T1, Topo IIC (Giardia lamblia, UniProt E2RU90 489-1491)
T1 sequence: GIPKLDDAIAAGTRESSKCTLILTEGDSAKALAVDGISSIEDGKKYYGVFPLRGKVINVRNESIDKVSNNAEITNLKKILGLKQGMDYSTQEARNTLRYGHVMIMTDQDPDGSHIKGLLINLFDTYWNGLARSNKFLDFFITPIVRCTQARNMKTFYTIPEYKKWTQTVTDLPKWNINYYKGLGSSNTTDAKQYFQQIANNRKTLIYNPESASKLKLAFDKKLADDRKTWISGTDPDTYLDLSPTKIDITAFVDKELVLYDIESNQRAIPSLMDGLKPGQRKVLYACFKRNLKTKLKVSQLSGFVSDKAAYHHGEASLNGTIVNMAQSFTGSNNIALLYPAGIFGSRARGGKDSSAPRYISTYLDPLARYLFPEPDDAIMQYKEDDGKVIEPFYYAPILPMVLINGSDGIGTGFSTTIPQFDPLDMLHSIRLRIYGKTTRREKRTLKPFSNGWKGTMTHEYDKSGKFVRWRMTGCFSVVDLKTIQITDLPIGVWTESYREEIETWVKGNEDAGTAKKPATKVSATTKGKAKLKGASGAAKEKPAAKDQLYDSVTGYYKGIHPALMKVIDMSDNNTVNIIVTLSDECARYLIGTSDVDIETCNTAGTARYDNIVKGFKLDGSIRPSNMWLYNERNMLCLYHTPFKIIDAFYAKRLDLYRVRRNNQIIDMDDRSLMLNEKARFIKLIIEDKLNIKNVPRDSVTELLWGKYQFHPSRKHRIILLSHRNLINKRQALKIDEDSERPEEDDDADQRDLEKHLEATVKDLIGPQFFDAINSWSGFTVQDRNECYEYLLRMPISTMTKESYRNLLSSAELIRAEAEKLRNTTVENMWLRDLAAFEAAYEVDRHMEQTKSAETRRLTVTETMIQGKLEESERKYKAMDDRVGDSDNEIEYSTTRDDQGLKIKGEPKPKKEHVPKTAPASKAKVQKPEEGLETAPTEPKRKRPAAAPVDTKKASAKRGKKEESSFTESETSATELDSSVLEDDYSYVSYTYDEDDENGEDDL
assay_notes: competition; 200-fold excess vs labeled IIBS; EMSA: 0.02 pmol 5'-labeled probe, 5 ng protein, 20 ul, 0.5 ug poly(dI-dC), 15 min, room temperature, 6% acrylamide gel; buffer, salt and pH only by citation
details: protein: recombinant; tags: C-terminal V5-His; chain copies: 2
measured_quantity: binding result

[in] Item under review: cwp3-30/+10 (dsDNA) DNA 1: GTCTTTCCCAAAAAATAAGTTACTACTGATATGTTTTCTC DNA 2: GAGAAAACATATCAGTAGTAACTTATTTTTTGGGAAAGAC . Reported binding result?
[out] binds

[in] Try this binder next: poly(A) with TC insertion (dsDNA) DNA 1: AAAAAAAAAAATCAAAAAAAAAA DNA 2: TTTTTTTTTTGATTTTTTTTTTT
[out] binds

[in] Try this binder next: cwp2-30/+8 (dsDNA) DNA 1: CAGCAGCTCAACAGTGGCTGGGAAAATAAAATGATCGC DNA 2: GCGATCATTTTATTTTCCCAGCCACTGTTGAGCTGCTG
[out] binds
